Molecular target: Steroidogenic factor 1 (Homo sapiens)
Assay: SF1 (NR5A1) inverse agonist potency, late-stage follow-up, selectivity assay for LRH-1 inverse agonist project, cell-based, luminescence, dose response (AID 651977)
Settings: SF1 cell-based luciferase reporter, inverse agonism
Active and inactive are the calls of the source. How the calls were made is not given here.
Permitted responses: active, inactive

Exam item: Record lookup: outcome of this test for CC(=O)Nc1ncc(Cc2cc(Cl)ccc2Cl)s1 ?
Marked response: inactive

Exam item: Record lookup: outcome of this test for Cc1ccc(NC(=O)COC(=O)C(NS(=O)(=O)c2ccc(Cl)cc2)C(C)O)cc1C (stereo unspecified) ?
Marked response: active

Exam item: Record lookup: outcome of this test for O=C(COc1ccc2c3c(c(=O)oc2c1)CCC3)NCc1ccncc1 ?
Marked response: inactive

Exam item: Record lookup: outcome of this test for CCc1cc(=O)oc2c(C)c(OCC(=O)NCCN3CCOCC3)ccc12 ?
Marked response: inactive

Exam item: Record lookup: outcome of this test for Cc1nn(CC(=O)Nc2ccc3c(c2)OCCO3)c(C)c1[N+](=O)[O-] ?
Marked response: inactive

Exam item: Record lookup: outcome of this test for Cc1cccc(NC(=O)COC(=O)CN2C(=O)c3ccccc3C2=O)c1C ?
Marked response: inactive

Exam item: Record lookup: outcome of this test for COC(=O)c1ccc(NC(=O)CSc2nc3ncccc3[nH]2)cc1 ?
Marked response: inactive

Exam item: Record lookup: outcome of this test for Cc1sc(NC(=O)C(C)C)c(C(=O)Nc2ccccc2)c1C ?
Marked response: active

Exam item: Record lookup: outcome of this test for O=C(CSc1nnc(CNC(=O)c2ccccc2F)o1)Nc1ccc2c(c1)OCCO2 ?
Marked response: inactive

Exam item: Record lookup: outcome of this test for CCn1c(SCC(=O)Nc2ccc(Cl)cc2)nnc1C1CC1 ?
Marked response: inactive

Let us examine a further case.
Exam item: Record lookup: outcome of this test for O=C(COC(=O)CCN1C(=O)C2CC=CCC2C1=O)NCCc1ccc(F)cc1 (stereo unspecified) ?
Marked response: inactive

###

Biological target: Steroidogenic factor 1 (Homo sapiens) (UniProt Q13285)
Sequence (Q13285 whole entry, looked up): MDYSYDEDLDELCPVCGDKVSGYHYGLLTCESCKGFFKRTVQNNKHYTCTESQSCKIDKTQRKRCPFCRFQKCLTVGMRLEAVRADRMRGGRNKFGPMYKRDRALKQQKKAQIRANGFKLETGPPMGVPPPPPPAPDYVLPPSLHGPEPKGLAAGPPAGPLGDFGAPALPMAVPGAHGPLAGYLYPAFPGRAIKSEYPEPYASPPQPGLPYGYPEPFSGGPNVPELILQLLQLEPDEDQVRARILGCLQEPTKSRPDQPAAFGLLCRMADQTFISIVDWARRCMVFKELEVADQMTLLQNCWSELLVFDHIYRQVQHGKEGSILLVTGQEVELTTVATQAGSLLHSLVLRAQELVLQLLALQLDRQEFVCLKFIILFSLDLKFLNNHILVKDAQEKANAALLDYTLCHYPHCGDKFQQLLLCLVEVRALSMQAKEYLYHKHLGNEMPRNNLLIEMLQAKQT
Experiment: SF1 (NR5A1) inverse agonist potency, late-stage follow-up, selectivity assay for LRH-1 inverse agonist project, cell-based, luminescence, dose response (AID 651977)
Settings: SF1 cell-based luciferase reporter, inverse agonism
Activity calls are given as the source filed them. The rule behind the calls is not given here.
Permitted responses: YES (active), NO (inactive)

Exam item: Record lookup: outcome of this test for COc1ccc(NC(=O)COC(=O)c2cc(S(=O)(=O)N3CCCC3)ccc2O)cc1 ?
Marked response: NO

Exam item: Record lookup: outcome of this test for CCCc1nnc(SCC(=O)Nc2ccc(C(=O)OCC)cc2)o1 ?
Marked response: NO

Exam item: Record lookup: outcome of this test for COc1ccc(CCNC(=O)COC(=O)Cc2ccccc2[N+](=O)[O-])cc1 ?
Marked response: NO

Exam item: Record lookup: outcome of this test for CCOc1ccc(NC(=O)CSc2nncc(=O)n2N)cc1 ?
Marked response: NO

Exam item: Record lookup: outcome of this test for CCOc1ccc(NC(=O)COC(=O)CC2CCCCC2)cc1 ?
Marked response: NO

Continuing:
Exam item: Record lookup: outcome of this test for COc1ccc(CCNC(=O)CSc2ccc(NC(C)=O)cc2)cc1OC ?
Marked response: YES

Exam item: Record lookup: outcome of this test for O=C(Nc1ccc(Br)cn1)c1ccc([N+](=O)[O-])o1 ?
Marked response: NO

###

Molecular target: Steroidogenic factor 1 (Homo sapiens)
Experiment: SF1 (NR5A1) inverse agonist potency, late-stage follow-up, selectivity assay for LRH-1 inverse agonist project, cell-based, luminescence, dose response (AID 651977)
Conditions: SF1 cell-based luciferase reporter, inverse agonism
Calls of active or inactive are those of the source. How the calls were made is not given here.
Permitted responses: t (active), f (inactive)

Exam item: Record lookup: outcome of this test for O=C(CSc1nnc(CNC(=O)c2c(F)cccc2F)o1)Nc1ccc2c(c1)OCCO2 ?
Marked response: f

Exam item: Record lookup: outcome of this test for O=C(NCc1ccco1)c1nn(-c2ccccc2)c(=O)c2ccccc12 ?
Marked response: f

Exam item: Record lookup: outcome of this test for COC(=O)c1ccc(NC(=O)CSc2nn3c(=O)c(C)nnc3s2)cc1 ?
Marked response: f

Exam item: Record lookup: outcome of this test for COc1ccc(NC(=O)CSc2nnc3ccc(-c4cccnc4)nn23)cc1OC ?
Marked response: t

Exam item: Record lookup: outcome of this test for O=C(COC(=O)c1ccc(=O)n(Cc2ccccc2)n1)Nc1ccc2c(c1)OCCO2 ?
Marked response: f

Continuing:
Exam item: Record lookup: outcome of this test for COCCn1c(C)cc(/C=C(\C#N)C(=O)OCC(=O)Nc2ccc(S(N)(=O)=O)cc2)c1C ?
Marked response: f

Exam item: Record lookup: outcome of this test for CCCc1cc(=O)oc2cc(C)cc(OCC(=O)NC3CC3)c12 ?
Marked response: t

###

Molecular target: Steroidogenic factor 1 (Homo sapiens)
Assay: SF1 (NR5A1) inverse agonist potency, late-stage follow-up, selectivity assay for LRH-1 inverse agonist project, cell-based, luminescence, dose response (AID 651977)
Details: SF1 cell-based luciferase reporter, inverse agonism
Activity calls are given as the source filed them. No rule for the calls is given here.
Permitted responses: true (1) for active, false (0) for inactive

Exam item: Record lookup: outcome of this test for COc1ccc(NC(=O)CSc2ccc3c(c2)OCCO3)cc1 ?
Marked response: false (0)

Exam item: Record lookup: outcome of this test for COc1ccc(CCNC(=O)CSc2nn3c(=O)c(C)nnc3s2)cc1OC ?
Marked response: true (1)

Continuing:
Exam item: Record lookup: outcome of this test for N#CCSc1ccccc1NC(=O)CN1C(=O)C2CC=CCC2C1=O (configuration not stated) ?
Marked response: false (0)

Exam item: Record lookup: outcome of this test for O=c1[nH]c(Nc2ccc3c(c2)OCCO3)nnc1Cc1ccccc1 ?
Marked response: false (0)

Exam item: Record lookup: outcome of this test for CC(=O)c1ccc(NC(=O)C(C)O/N=C(\N)c2ccccc2)cc1 (configuration not stated) ?
Marked response: false (0)

Exam item: Record lookup: outcome of this test for O=C(NCC1CCCO1)c1ccc(NC(=O)c2cccc([N+](=O)[O-])c2)cc1 (configuration not stated) ?
Marked response: true (1)

Exam item: Record lookup: outcome of this test for CCCc1cc(=O)oc2cc(OCC(=O)NCCc3ccc(S(N)(=O)=O)cc3)ccc12 ?
Marked response: false (0)

Exam item: Record lookup: outcome of this test for Cc1cc(C)c2sc(NC(=O)c3ccc([N+](=O)[O-])o3)nc2c1 ?
Marked response: false (0)

Exam item: Record lookup: outcome of this test for Cc1ccc(-c2csc(NC(=O)c3ccc([N+](=O)[O-])o3)n2)cc1 ?
Marked response: false (0)

Exam item: Record lookup: outcome of this test for COc1ccc(CCNC(=O)CSc2nc3[nH]c(=O)cc(O)c3s2)cc1 ?
Marked response: false (0)

Exam item: Record lookup: outcome of this test for COc1ccc(NC(=O)CSc2nc(N)c(-c3ccccc3)c(=O)[nH]2)cc1 ?
Marked response: true (1)

Exam item: Record lookup: outcome of this test for COC(=O)c1ccc(NC(=O)COc2cccc(-n3cnnn3)c2)cc1 ?
Marked response: false (0)

Exam item: Record lookup: outcome of this test for CCCc1cc(=O)oc2c(C)c(OCC(=O)NCCN3CCOCC3)ccc12 ?
Marked response: true (1)

Exam item: Record lookup: outcome of this test for O=C(Nc1ccccc1)c1oc2ccccc2c1NC(=O)C1CC1 ?
Marked response: false (0)

Exam item: Record lookup: outcome of this test for COC(=O)c1ccc(NC(=O)CSc2nncn2-c2cccnc2)cc1 ?
Marked response: false (0)

Exam item: Record lookup: outcome of this test for COc1ccc(NC(=O)CN2C(=O)NC3(CCCC3)C2=O)cc1 ?
Marked response: false (0)

###

Target: Steroidogenic factor 1 (Homo sapiens) (UniProt Q13285)
Assay: SF1 (NR5A1) inverse agonist potency, late-stage follow-up, selectivity assay for LRH-1 inverse agonist project, cell-based, luminescence, dose response (AID 651977)
Details: SF1 cell-based luciferase reporter, inverse agonism
Calls of active or inactive are those of the source. The rule behind the calls is not given here.
Permitted responses: TRUE for active, FALSE for inactive

Some solved entries appear below for comparison.
Exam item: Record lookup: outcome of this test for CCCc1cc(=O)oc2c(C)c(OCC(=O)NCCCn3ccnc3)ccc12 ?
Marked response: TRUE

Exam item: Record lookup: outcome of this test for Cc1cc(C)c2nc(NC(=O)c3ccc([N+](=O)[O-])o3)sc2c1 ?
Marked response: FALSE

Exam item: Record lookup: outcome of this test for Cc1cc(Br)ccc1NC(=O)CSc1nnc(CN2CCOCC2)n1C ?
Marked response: FALSE

Exam item: Record lookup: outcome of this test for CC(=O)Nc1ccc(N=c2cc([N+](=O)[O-])cc(Cl)n2O)cc1 ?
Marked response: FALSE

Let us examine a further case.
Exam item: Record lookup: outcome of this test for Cc1ccc(NC(=O)COC(=O)C(NS(=O)(=O)c2ccc(Cl)cc2)C(C)O)c(Br)c1 (stereo not given) ?
Marked response: FALSE

###

Target: Steroidogenic factor 1 (Homo sapiens) (UniProt Q13285)
Assay: SF1 (NR5A1) inverse agonist potency, late-stage follow-up, selectivity assay for LRH-1 inverse agonist project, cell-based, luminescence, dose response (AID 651977)
Conditions: SF1 cell-based luciferase reporter, inverse agonism
The source made the active and inactive calls. No rule for the calls is given here.
measurement_name: IC50

Illustrative cases are given below, each with its answer.
Exam item: Find the measured IC50 of O=C(COc1ccc2c3c(c(=O)oc2c1)CCCC3)NCc1ccccn1 and report it.
Marked response: > 35.9 µM (inactive)

Exam item: Find the measured IC50 of COc1ccc(CCNC(=O)COC(=O)C23CC4CC(CC(C4)C2)C3)cc1 and report it.
Marked response: 4.42 µM

Exam item: Find the measured IC50 of COc1ccc(-n2c(N)c(C(=O)NCc3cccnc3)sc2=S)cc1 and report it.
Marked response: > 35.9 µM (inactive)

Exam item: Find the measured IC50 of CCCN(CC(=O)Nc1ccc(C(C)=O)cc1)CC(=O)Nc1ccccc1C and report it.
Marked response: inactive

Continuing:
Exam item: Find the measured IC50 of Cc1ccc(NC(=O)CSc2nc3[nH]c(=O)cc(O)c3s2)c(Br)c1 and report it.
Marked response: > 35.9 µM (inactive)

Exam item: Find the measured IC50 of Cc1cc(Br)ccc1NC(=O)CN1C(=O)C2CC=CCC2C1=O (configuration not stated) and report it.
Marked response: 0.351 µM

Exam item: Find the measured IC50 of CCOc1ccc(NC(=O)CSc2nc3[nH]ncc3c(=O)[nH]2)cc1 and report it.
Marked response: > 35.9 µM (inactive)

Exam item: Find the measured IC50 of COc1ccc(CCNC(=O)COC(=O)c2cc(Cl)nc(Cl)c2)cc1 and report it.
Marked response: > 35.9 µM (inactive)

Origin of measurements: PubChem BioAssay AID651977
